Reference source: BigSolDB 2.1

- settings: in ethanol, 293.15 K

substance_smiles: O=c1[nH]cc(F)c(=O)[nH]1
solubility (mole fraction): 0.00245

====

- settings: in methanol, 313.15 K

substance_smiles: O=c1[nH]cc(F)c(=O)[nH]1
solubility (mole fraction): 0.00643

====

- settings: in formic acid, 288.15 K

substance_smiles: O=c1[nH]cc(F)c(=O)[nH]1
solubility (mole fraction): 0.000568

====

- settings: in isopropanol, 298.15 K
quantity: solubility (mole fraction)

substance_smiles: O=c1[nH]cc(F)c(=O)[nH]1
measurement: 0.000908

====

- settings: in n-pentanol, 313.15 K

substance_smiles: O=c1[nH]cc(F)c(=O)[nH]1
solubility (mole fraction): 0.00199

====

- settings: in n-butanol, 303.15 K

substance_smiles: O=c1[nH]cc(F)c(=O)[nH]1
solubility (mole fraction): 0.00168

====

- settings: in n-butyric acid, 298.15 K

substance_smiles: O=c1[nH]cc(F)c(=O)[nH]1
solubility (mole fraction): 0.000444

====

- settings: in propionic acid, 303.15 K
quantity: solubility (mole fraction)

substance_smiles: O=c1[nH]cc(F)c(=O)[nH]1
measurement: 0.000816

====

- settings: in water, 288.15 K
quantity: solubility (mole fraction)

substance_smiles: O=c1[nH]cc(F)c(=O)[nH]1
quantity: solubility (mole fraction)
measurement: 0.00131

====

- settings: in n-butanol, 313.15 K

substance_smiles: O=c1[nH]cc(F)c(=O)[nH]1
solubility (mole fraction): 0.00232

====

- settings: in n-butanol, 288.15 K
quantity: solubility (mole fraction)

substance_smiles: O=c1[nH]cc(F)c(=O)[nH]1
quantity: solubility (mole fraction)
measurement: 0.00113

====

- settings: in n-propanol, 323.15 K

substance_smiles: O=c1[nH]cc(F)c(=O)[nH]1
solubility (mole fraction): 0.00465

====

- settings: in n-butyric acid, 318.15 K

substance_smiles: O=c1[nH]cc(F)c(=O)[nH]1
solubility (mole fraction): 0.00111

====

- settings: in DMF, 298.15 K
quantity: solubility (mole fraction)

substance_smiles: O=c1[nH]cc(F)c(=O)[nH]1
quantity: solubility (mole fraction)
measurement: 0.00658

====

- settings: in ethanol, 318.15 K

substance_smiles: O=c1[nH]cc(F)c(=O)[nH]1
solubility (mole fraction): 0.00402

====

- settings: in propionic acid, 308.15 K
quantity: solubility (mole fraction)

substance_smiles: O=c1[nH]cc(F)c(=O)[nH]1
measurement: 0.00101

====

- settings: in water, 313.15 K

substance_smiles: O=c1[nH]cc(F)c(=O)[nH]1
solubility (mole fraction): 0.00256

====

- settings: in acetic acid, 323.15 K
quantity: solubility (mole fraction)

substance_smiles: O=c1[nH]cc(F)c(=O)[nH]1
measurement: 0.0022

====

- settings: in propionic acid, 288.15 K

substance_smiles: O=c1[nH]cc(F)c(=O)[nH]1
solubility (mole fraction): 0.000454

====

- settings: in water, 303.15 K
quantity: solubility (mole fraction)

substance_smiles: O=c1[nH]cc(F)c(=O)[nH]1
quantity: solubility (mole fraction)
measurement: 0.00198

====

- settings: in n-butyric acid, 293.15 K
quantity: solubility (mole fraction)

substance_smiles: O=c1[nH]cc(F)c(=O)[nH]1
measurement: 0.000364

====

- settings: in ethanol, 313.15 K
quantity: solubility (mole fraction)

substance_smiles: O=c1[nH]cc(F)c(=O)[nH]1
measurement: 0.00369

====

- settings: in isopentanol, 293.15 K

substance_smiles: O=c1[nH]cc(F)c(=O)[nH]1
solubility (mole fraction): 0.00095

====

- settings: in ethanol, 308.15 K
quantity: solubility (mole fraction)

substance_smiles: O=c1[nH]cc(F)c(=O)[nH]1
quantity: solubility (mole fraction)
measurement: 0.00331

====

- settings: in propionic acid, 318.15 K

substance_smiles: O=c1[nH]cc(F)c(=O)[nH]1
solubility (mole fraction): 0.00166

====

- settings: in n-butanol, 283.15 K

substance_smiles: O=c1[nH]cc(F)c(=O)[nH]1
solubility (mole fraction): 0.00101

====

- settings: in isopentanol, 313.15 K

substance_smiles: O=c1[nH]cc(F)c(=O)[nH]1
solubility (mole fraction): 0.00188

====

- settings: in n-butanol, 293.15 K

substance_smiles: O=c1[nH]cc(F)c(=O)[nH]1
solubility (mole fraction): 0.00128

====

- settings: in n-pentanol, 288.15 K

substance_smiles: O=c1[nH]cc(F)c(=O)[nH]1
solubility (mole fraction): 0.000902

====

- settings: in isopentanol, 283.15 K

substance_smiles: O=c1[nH]cc(F)c(=O)[nH]1
solubility (mole fraction): 0.000714

====

- settings: in n-propanol, 303.15 K

substance_smiles: O=c1[nH]cc(F)c(=O)[nH]1
solubility (mole fraction): 0.00303

====

- settings: in isopentanol, 308.15 K
quantity: solubility (mole fraction)

substance_smiles: O=c1[nH]cc(F)c(=O)[nH]1
quantity: solubility (mole fraction)
measurement: 0.00156

====

- settings: in n-propanol, 298.15 K

substance_smiles: O=c1[nH]cc(F)c(=O)[nH]1
solubility (mole fraction): 0.00272

====

- settings: in n-pentanol, 303.15 K

substance_smiles: O=c1[nH]cc(F)c(=O)[nH]1
solubility (mole fraction): 0.0014

====

- settings: in ethanol, 323.15 K

substance_smiles: O=c1[nH]cc(F)c(=O)[nH]1
solubility (mole fraction): 0.00451

====

- settings: in isopropanol, 323.15 K
quantity: solubility (mole fraction)

substance_smiles: O=c1[nH]cc(F)c(=O)[nH]1
measurement: 0.00247

====

- settings: in n-pentanol, 283.15 K

substance_smiles: O=c1[nH]cc(F)c(=O)[nH]1
solubility (mole fraction): 0.000791

====

- settings: in isopentanol, 323.15 K
quantity: solubility (mole fraction)

substance_smiles: O=c1[nH]cc(F)c(=O)[nH]1
quantity: solubility (mole fraction)
measurement: 0.00276

====

- settings: in isobutanol, 283.15 K

substance_smiles: O=c1[nH]cc(F)c(=O)[nH]1
solubility (mole fraction): 0.000629

====

- settings: in n-propanol, 308.15 K

substance_smiles: O=c1[nH]cc(F)c(=O)[nH]1
solubility (mole fraction): 0.00338

====

- settings: in formic acid, 283.15 K

substance_smiles: O=c1[nH]cc(F)c(=O)[nH]1
solubility (mole fraction): 0.000481

====

- settings: in isopentanol, 298.15 K

substance_smiles: O=c1[nH]cc(F)c(=O)[nH]1
solubility (mole fraction): 0.00112

====

- settings: in methanol, 303.15 K
quantity: solubility (mole fraction)

substance_smiles: O=c1[nH]cc(F)c(=O)[nH]1
measurement: 0.00521

====

- settings: in DMF, 308.15 K

substance_smiles: O=c1[nH]cc(F)c(=O)[nH]1
solubility (mole fraction): 0.00923

====

- settings: in isopropanol, 308.15 K
quantity: solubility (mole fraction)

substance_smiles: O=c1[nH]cc(F)c(=O)[nH]1
measurement: 0.00132

====

- settings: in isopropanol, 293.15 K
quantity: solubility (mole fraction)

substance_smiles: O=c1[nH]cc(F)c(=O)[nH]1
measurement: 0.000762

====

- settings: in DMF, 293.15 K

substance_smiles: O=c1[nH]cc(F)c(=O)[nH]1
solubility (mole fraction): 0.00556

====

- settings: in n-butyric acid, 308.15 K
quantity: solubility (mole fraction)

substance_smiles: O=c1[nH]cc(F)c(=O)[nH]1
measurement: 0.000696

====

- settings: in water, 318.15 K
quantity: solubility (mole fraction)

substance_smiles: O=c1[nH]cc(F)c(=O)[nH]1
quantity: solubility (mole fraction)
measurement: 0.00298

====

- settings: in methanol, 323.15 K

substance_smiles: O=c1[nH]cc(F)c(=O)[nH]1
solubility (mole fraction): 0.00787

====

- settings: in isobutanol, 288.15 K

substance_smiles: O=c1[nH]cc(F)c(=O)[nH]1
solubility (mole fraction): 0.000731

====

- settings: in isopropanol, 313.15 K
quantity: solubility (mole fraction)

substance_smiles: O=c1[nH]cc(F)c(=O)[nH]1
measurement: 0.00161

====

- settings: in methanol, 298.15 K

substance_smiles: O=c1[nH]cc(F)c(=O)[nH]1
solubility (mole fraction): 0.00464

====

- settings: in isopropanol, 283.15 K
quantity: solubility (mole fraction)

substance_smiles: O=c1[nH]cc(F)c(=O)[nH]1
quantity: solubility (mole fraction)
measurement: 0.000549

====

- settings: in methanol, 288.15 K

substance_smiles: O=c1[nH]cc(F)c(=O)[nH]1
solubility (mole fraction): 0.00357

====

- settings: in n-butyric acid, 303.15 K

substance_smiles: O=c1[nH]cc(F)c(=O)[nH]1
solubility (mole fraction): 0.000557
